These measurements were taken from patent US9232799B2.

Tested on: Alternaria solani
protocolText: In vivo preventive test on Alternaria solani (tomato)
testContext: 500 ppm of active ingredient, evaluated 7 days after inoculation
readoutLabel: Efficacy (%)
Give a bare numeral; the unit % is implied.

# count of solved cases: 3
## Input Return reported Efficacy; argument: CC(CNC(=O)c1c(C(F)F)nn(C)c1Cl)c1cc(Cl)ccc1Cl (stereo not shown)
## Output 95

## Input Please give the result for CC(Cc1ccc(Oc2ccccc2)cc1)NC(=O)c1c(C(F)F)nn(C)c1Cl (stereo not shown) too.
## Output 100

## Input Next up: `CN(CC(=O)c1ccc(Cl)cc1)C(=O)c1c(C(F)F)nn(C)c1F`
## Output 90

Okay, now this compound:
## Input Could you tell me which Efficacy is on file for `CN(CCc1ccccc1)C(=O)c1c(C(F)F)nn(C)c1F` ?
## Output 100

---

Below, each entry is listed with its recorded Efficacy.
Tested on: Alternaria solani
protocolText: In vivo preventive test on Alternaria solani (tomato)
testContext: 500 ppm of active ingredient, evaluated 7 days after inoculation
Number first, unit second.

Answered examples (3):
## Input Tell me the measured Efficacy of `Cn1nc(C(F)F)c(C(=O)NCCc2csc3c2CCCC3)c1Cl` , please.
## Output 80%

## Input Now consider Cc1cccnc1CC(NC(=O)c1c(C(F)F)nn(C)c1F)C(F)(F)F (stereo not drawn) .
## Output 95%

## Input Likewise for `CN(CCc1ccccc1)C(=O)c1c(C(F)F)nn(C)c1Cl` ?
## Output 95%

Continuing:
## Input Which Efficacy value is on record for `CN(CCc1ccccc1Cl)C(=O)c1c(C(F)F)nn(C)c1Cl` ?
## Output 100%

## Input Lookup `Cn1nc(C(F)F)c(C(=O)NCCc2ccccc2Oc2ccccc2)c1F`
## Output 100%

## Input Same read-out for CC(CNC(=O)c1c(C(F)F)nn(C)c1Cl)c1cc(Cl)cc(Cl)c1 (stereo not drawn) ?
## Output 95%

## Input Would you mind doing `Cn1nc(C(F)F)c(C(=O)N(CCc2ccccc2)C2CC2)c1F` as well?
## Output 95%

## Input Queued: `Cn1nc(C(F)F)c(C(=O)NC[Si](C)(C)c2cc(Cl)cc(Cl)c2)c1Cl`
## Output 95%

## Input Next compound up: CC(C)C(CNC(=O)c1c(C(F)F)nn(C)c1F)c1ccc(Cl)cc1 (stereo not drawn)
## Output 100%

---

protocolText: logP by HPLC on reversed-phase column (C 18), EEC Directive 79/831 Annex V.A8
Assay type: physicochemical
readoutLabel: logP
// no unit, no text: just the number

## Input // lookup logP for CC(Cc1cccc(Cl)c1)NC(=O)c1c(C(F)F)nn(C)c1F (centres unmarked)
## Output 3.02

---
## Input Requested field: logP. Item: `Cn1nc(C(F)F)c(C(=O)NCCc2cc(Cl)cc(Cl)c2)c1Cl`
## Output 3.42

## Input Likewise for CCN(C(=O)c1c(C(F)F)nn(C)c1Cl)C(C)C(=O)c1ccccc1 (centres unmarked) ?
## Output 2.71

## Input Field entry: Cn1nc(C(F)F)c(C(=O)NC2CC2c2ccc(F)cc2)c1F (centres unmarked)
## Output 2.59

---

Some compounds, each annotated with its measured % Inhibition of fungal growth at 50 μM.
Test system: Fusarium graminearum
protocolText: microbe, parasite or virus in culture
Type: cell-based
testContext: 50 μM
# number only, unit % dropped from output

Illustrative cases are given below, each with its answer.
## Input Any idea what its % Inhibition of fungal growth at 50 μM is? The compound is CC(CNC(=O)c1c(C(F)F)nn(C)c1F)c1c(F)cccc1F (stereo not shown) [Example 30]
## Output 98

## Input What do you get for COC(CNC(=O)c1c(C(F)F)nn(C)c1Cl)c1cc(Cl)cc(Cl)c1 (stereo not shown) [Example 106] ?
## Output 69

## Input Next compound: CC(CN(C(=O)c1c(C(F)F)nn(C)c1Cl)C1CC1)c1ccccc1 (stereo not shown) [Example 14]
## Output 100

More entries:
## Input Please give the measured % Inhibition of fungal growth at 50 μM for this compound: CC(Cc1ccc(Cl)cc1Cl)NC(=O)c1c(C(F)F)nn(C)c1F (stereo not shown) [Example 67]
## Output 100

---

Tested on: Fusarium graminearum
protocolText: microbe, parasite or virus in culture
Assay type: cell-based
testContext: 50 μM
readoutLabel: % Inhibition of fungal growth at 50 μM (%)
Dear colleague, please return just the value in %, with no unit written.

## Input Value lookup for % Inhibition of fungal growth at 50 μM; key = CC(Cc1cc(Cl)cc(Cl)c1)NC(=O)c1c(C(F)F)nn(C)c1Cl (centres unmarked) [Example 104]
## Output 98

## Input Field entry: Cn1nc(C(F)F)c(C(=O)NCCc2cc(Cl)cc(Cl)c2)c1Cl [Example 105]
## Output 95

## Input Now consider CC(CNC(=O)c1c(C(F)F)nn(C)c1Cl)c1cccc(C(F)(F)F)c1 (centres unmarked) [Example 125] .
## Output 78

***
## Input Which % Inhibition of fungal growth at 50 μM is reported for this compound? Cn1nc(C(F)F)c(C(=O)N(CC(F)(F)c2ccc(Cl)cc2Cl)C2CC2)c1F [Example 86]
## Output 98

## Input Follow-up entry: COC(c1ccc(Cl)cc1Cl)C1(NC(=O)c2c(C(F)F)nn(C)c2F)CC1 (centres unmarked) [Example 79]
## Output 98

---

Tested on: Fusarium graminearum
protocolText: microbe, parasite or virus in culture
Format: cell-based
testContext: 50 μM
In this section, each of the compounds is paired with its reported % Inhibition of fungal growth at 50 μM.
Entry rule: numbers only, all in %.

Check out these entries, answers already filled in.
## Input Given CC(C)C(CNC(=O)c1c(C(F)F)nn(C)c1F)c1ccc(Cl)cc1 (centres unmarked) , state its recorded % Inhibition of fungal growth at 50 μM.
## Output 96

## Input For CC(Cc1c(Cl)cccc1Cl)N(C(=O)c1c(C(F)F)nn(C)c1F)C1CC1 (centres unmarked) then?
## Output 100

## Input Lookup `CN(CCc1ccc(F)cc1)C(=O)c1c(C(F)F)nn(C)c1F`
## Output 100

## Input And the next one, CC(c1ccccc1Cl)C(C)N(C(=O)c1c(C(F)F)nn(C)c1F)C1CC1 (centres unmarked) ?
## Output 100

## Input Then what about the compound COC(CNC(=O)c1c(C(F)F)nn(C)c1Cl)c1ccc(Cl)cc1Cl (centres unmarked) ?
## Output 100

Further cases:
## Input What value of % Inhibition of fungal growth at 50 μM has been reported for the following compound? `Cc1ccsc1CCNC(=O)c1c(C(F)F)nn(C)c1Cl`
## Output 80

## Input Same read-out for CC(CN(C(=O)c1c(C(F)F)nn(C)c1F)C1CC1)c1ccccc1 (centres unmarked) ?
## Output 100

## Input Could you do the same for `CN(CCc1ccccc1)C(=O)c1c(C(F)F)nn(C)c1F` , please?
## Output 91

---

Test system: Alternaria solani
protocolText: In vivo preventive test on Alternaria solani (tomato)
testContext: 500 ppm of active ingredient, evaluated 7 days after inoculation
Entries annotated with measured Efficacy
Answer in %, number only, no unit symbol.

Example results:
## Input Any idea what its Efficacy is? The compound is `Cn1nc(C(F)F)c(C(=O)N(CC(F)(F)c2ccccc2Cl)C2CC2)c1F`
## Output 100

## Input Continue with `Cn1nc(C(F)F)c(C(=O)NCCc2ccccc2C(F)(F)F)c1F`
## Output 95

## Input What do we get for CC(Cc1ccccc1Cl)NC(=O)c1c(C(F)F)nn(C)c1F (stereo not shown) ?
## Output 100

## Input Same question, COC(c1cc(Cl)cc(Cl)c1)C(C)NC(=O)c1c(C(F)F)nn(C)c1F (mixture of isomers) this time
## Output 95

## Input Also `Cc1c(CCNC(=O)c2c(C(F)F)nn(C)c2F)sc2ccccc12` , if possible.
## Output 100

## Input How about this compound: CC(Cc1ccc(Cl)cc1)N(C(=O)c1c(C(F)F)nn(C)c1F)C1CC1 (stereo not shown)
## Output 95

Further cases:
## Input Could you share which Efficacy value was measured for `Cn1nc(C(F)F)c(C(=O)NCCc2c(F)c(F)nc(F)c2F)c1F` ?
## Output 95

---

protocolText: logP by HPLC on reversed-phase column (C 18), EEC Directive 79/831 Annex V.A8
Assay type: physicochemical
readoutLabel: logP
Give the figure by itself; no unit, no explanation.

Record excerpt, results attached:
## Input May I ask what logP has been recorded for CC(Cc1c(Cl)cccc1Cl)N(C(=O)c1c(C(F)F)nn(C)c1F)C1CC1 (stereo not shown) ?
## Output 4.06

## Input Then this compound: `Cn1nc(C(F)F)c(C(=O)NCC(C)(C)c2cccc(Oc3ccccc3)c2)c1F`
## Output 3.92

## Input What about this compound? `Cn1nc(C(F)F)c(C(=O)NCC(C)(C)c2cccc(Cl)c2)c1Cl`
## Output 3.53

## Input Same question, `Cn1nc(C(F)F)c(C(=O)NCCc2cccc(Oc3ccccc3)c2)c1F` this time
## Output 3.37

More entries:
## Input Can you look up the measured logP of `Cn1nc(C(F)F)c(C(=O)NCCc2cccc(Cl)c2)c1F` for me?
## Output 2.75

## Input Quick one: `Cn1nc(C(F)F)c(C(=O)NC[Si](C)(C)c2cccc(Cl)c2)c1Cl`
## Output 3.71

## Input How about Cn1nc(C(F)F)c(C(=O)NC2CC2c2cccc(F)c2)c1F (stereo not shown) ?
## Output 2.59

## Input Now try `Cc1cc(C)c(CCN(C(=O)c2c(C(F)F)nn(C)c2F)C(C)C)c(C)c1` .
## Output 4.30

## Input Next compound: CC(Cc1c(F)cccc1F)N(C(=O)c1c(C(F)F)nn(C)c1Cl)C1CC1 (stereo not shown)
## Output 3.57

## Input Another compound to check: Cn1nc(C(F)F)c(C(=O)N(C2CC2)C2CCCCC2c2ccccc2Cl)c1F (stereo not shown)
## Output 4.49
